# System: Escherichia coli TOP10
# Experiment description: shrunken log2 fold change of peptide-encoding DNA abundance (4.5 h post-induction vs induction); higher = less antimicrobial activity (less host growth inhibition)
# Study conditions: time post-induction: 4.5 h; library: site-saturation at positions 5, 18, 19, 20
Measured metric: shrunken log2 fold change

Need shrunken log2 fold change of "RRIRVRPPRLPRPRPRPNFEPRP" , thanks. 0.178

Need shrunken log2 fold change of "RRIRCRPPRLPRPRPRPMVYPRP" , thanks. -0.187

Need shrunken log2 fold change of "RRIRMRPPRLPRPRPRPNEIPRP" , thanks. 0.0871

###

# System: Escherichia coli TOP10
# Experiment description: shrunken log2 fold change of peptide-encoding DNA abundance (4.5 h post-induction vs induction); higher = less antimicrobial activity (less host growth inhibition)
# Study conditions: time post-induction: 4.5 h; library: site-saturation at positions 5, 18, 19, 20
Measured metric: shrunken log2 fold change
Reply: number alone, nothing else.

1) RRIRDRPPRLPRPRPRPHKKPRP : -0.00887
2) RRIRHRPPRLPRPRPRPWAMPRP : -0.00884
3) RRIRNRPPRLPRPRPRPDSEPRP : -0.0671
4) RRIRLRPPRLPRPRPRPIPFPRP : -0.0242
5) RRIRGRPPRLPRPRPRPHRIPRP : 0.00463
6) RRIRIRPPRLPRPRPRPLAAPRP : 0.255
7) RRIRMRPPRLPRPRPRPSAEPRP : 2.7

Now look at this entry.
Need shrunken log2 fold change of "RRIRCRPPRLPRPRPRPECNPRP" , thanks. -0.0881

###

# System: Escherichia coli TOP10;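 also: peptides expressed intracellularly from a pBAD plasmid library in pooled LB shake-flask culture, induced with 0.3% L-arabinose, DNA abundance read by NGS, three biological replicates, DESeq2 with apeglm shrinkage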
# Experiment description: shrunken log2 fold change of peptide-encoding DNA abundance (4.5 h post-induction vs induction); higher = less antimicrobial activity (less host growth inhibition)
# Study conditions: time post-induction: 4.5 h; library: site-saturation at positions 5, 18, 19, 20
# label = met if shrunken log2 fold change >= -0.08 else not met

1. RRIRMRPPRLPRPRPRPLACPRP : met
2. RRIRKRPPRLPRPRPRPISYPRP : met
3. RRIRMRPPRLPRPRPRPTILPRP : met
4. RRIRERPPRLPRPRPRPTQYPRP : not met
5. RRIRQRPPRLPRPRPRPDVLPRP : met
6. RRIRQRPPRLPRPRPRPRGFPRP : met
7. RRIRQRPPRLPRPRPRPPGIPRP : met
8. RRIRCRPPRLPRPRPRPWYTPRP : not met

Answer whether shrunken log2 fold change of "RRIRERPPRLPRPRPRPQFWPRP" is greater than or equal to -0.08. met

Answer whether shrunken log2 fold change of "RRIRMRPPRLPRPRPRPQRDPRP" is greater than or equal to -0.08. met

Answer whether shrunken log2 fold change of "RRIRGRPPRLPRPRPRPVDEPRP" is greater than or equal to -0.08. met

Answer whether shrunken log2 fold change of "RRIRKRPPRLPRPRPRPHKCPRP" is greater than or equal to -0.08. met

Answer whether shrunken log2 fold change of "RRIRCRPPRLPRPRPRPLTVPRP" is greater than or equal to -0.08. not met

Answer whether shrunken log2 fold change of "RRIRMRPPRLPRPRPRPCNEPRP" is greater than or equal to -0.08. not met

Answer whether shrunken log2 fold change of "RRIRQRPPRLPRPRPRPLGAPRP" is greater than or equal to -0.08. met

Answer whether shrunken log2 fold change of "RRIRLRPPRLPRPRPRPAPFPRP" is greater than or equal to -0.08. not met

The measurements presented in this section are drawn from the supplement of paper PMC9112550.
